# studyTarget: UniProtKB P56524
# Sequence (P56524 whole entry): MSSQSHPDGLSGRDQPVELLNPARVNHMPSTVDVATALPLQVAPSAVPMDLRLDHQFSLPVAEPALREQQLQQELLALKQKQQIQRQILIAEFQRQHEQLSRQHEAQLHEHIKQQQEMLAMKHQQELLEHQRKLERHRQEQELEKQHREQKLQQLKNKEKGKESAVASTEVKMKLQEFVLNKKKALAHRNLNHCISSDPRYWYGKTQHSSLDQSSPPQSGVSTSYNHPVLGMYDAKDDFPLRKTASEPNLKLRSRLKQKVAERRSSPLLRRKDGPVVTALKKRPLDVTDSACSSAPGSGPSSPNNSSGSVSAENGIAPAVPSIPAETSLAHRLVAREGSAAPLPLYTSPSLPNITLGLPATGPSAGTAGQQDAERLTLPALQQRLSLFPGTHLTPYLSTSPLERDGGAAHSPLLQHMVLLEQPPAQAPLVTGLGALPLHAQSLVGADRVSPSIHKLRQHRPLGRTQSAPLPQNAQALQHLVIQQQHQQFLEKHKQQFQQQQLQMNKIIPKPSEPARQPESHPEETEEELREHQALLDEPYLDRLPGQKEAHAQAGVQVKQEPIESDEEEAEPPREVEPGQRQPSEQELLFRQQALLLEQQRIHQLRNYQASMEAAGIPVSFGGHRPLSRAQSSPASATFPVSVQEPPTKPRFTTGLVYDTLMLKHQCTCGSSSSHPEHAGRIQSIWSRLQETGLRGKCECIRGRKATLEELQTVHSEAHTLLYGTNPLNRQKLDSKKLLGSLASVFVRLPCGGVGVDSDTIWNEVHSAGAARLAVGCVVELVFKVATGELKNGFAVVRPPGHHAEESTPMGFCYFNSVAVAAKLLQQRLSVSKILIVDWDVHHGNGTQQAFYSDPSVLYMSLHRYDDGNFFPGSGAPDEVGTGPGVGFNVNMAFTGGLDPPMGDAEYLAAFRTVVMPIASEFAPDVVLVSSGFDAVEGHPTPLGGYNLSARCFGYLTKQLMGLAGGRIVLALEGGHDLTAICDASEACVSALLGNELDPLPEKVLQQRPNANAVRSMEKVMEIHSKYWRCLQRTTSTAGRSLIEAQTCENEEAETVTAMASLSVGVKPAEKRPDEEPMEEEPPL
endpointLabel: IC50

Query: Hi! What's the reported IC50 for CCCCCOCCCCCNNC(=O)c1ccc(CNC(=O)c2ccccc2)cc1 [B6] on UniProtKB P56524?
Response: > 10 µM

====

# studyTarget: HDAC8 (Homo sapiens)
# Construct: purchased BPS Bioscience
# Sequence (Q9BY41 whole entry): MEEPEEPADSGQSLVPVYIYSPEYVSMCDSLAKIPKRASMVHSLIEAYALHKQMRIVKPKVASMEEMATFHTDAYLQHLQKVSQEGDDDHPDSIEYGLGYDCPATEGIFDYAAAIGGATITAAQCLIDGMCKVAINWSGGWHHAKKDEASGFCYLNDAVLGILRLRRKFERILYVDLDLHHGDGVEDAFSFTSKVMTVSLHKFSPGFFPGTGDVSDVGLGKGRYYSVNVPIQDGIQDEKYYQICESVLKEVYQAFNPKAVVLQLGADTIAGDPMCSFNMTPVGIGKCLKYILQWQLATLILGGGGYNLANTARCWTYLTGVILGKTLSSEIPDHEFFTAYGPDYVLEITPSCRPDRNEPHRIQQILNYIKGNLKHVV
# test: In vitro HDACs inhibition fluorescence assay, HDAC8
# Assay type: biochemical
endpointLabel: pIC50
Bear in mind: pIC50 is minus log10 of a mol/L concentration; give just that figure.

Query: Quick check: pIC50 of CCCCCOCCCCCNNC(=O)c1ccc(CNC(=O)c2ccccc2)cc1 [B6] ?
Response: 5.30

====

# studyTarget: HDAC2 (Homo sapiens, UniProt Q92769)
# Sequence (Q92769 whole entry): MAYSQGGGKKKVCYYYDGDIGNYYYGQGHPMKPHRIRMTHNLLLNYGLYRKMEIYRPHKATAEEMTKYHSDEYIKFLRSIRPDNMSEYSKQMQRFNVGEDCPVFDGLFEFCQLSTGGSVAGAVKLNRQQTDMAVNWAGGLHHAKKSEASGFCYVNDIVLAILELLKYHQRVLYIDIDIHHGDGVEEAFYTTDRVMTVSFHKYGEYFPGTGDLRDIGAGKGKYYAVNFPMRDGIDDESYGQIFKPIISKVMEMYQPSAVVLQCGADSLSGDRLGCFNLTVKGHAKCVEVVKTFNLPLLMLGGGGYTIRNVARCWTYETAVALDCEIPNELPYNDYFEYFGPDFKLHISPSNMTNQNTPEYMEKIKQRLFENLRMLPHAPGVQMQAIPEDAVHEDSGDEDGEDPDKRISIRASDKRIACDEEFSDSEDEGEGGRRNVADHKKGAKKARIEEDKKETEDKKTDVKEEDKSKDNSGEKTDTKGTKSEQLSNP
pIC50: −log10 of the molar value.
endpointLabel: pIC50

Query: Hi! What's the reported pIC50 for CCCCCOCCCCCNNC(=O)c1ccc(CNC(=O)c2ccccc2)cc1 [B6] on HDAC2 (Homo sapiens, UniProt Q92769)?
Response: < 5.00

====

# test: Pharmacokinetic study in ICR mice (i.v. and p.o.)
# Assay type: in vivo
# details: male, ICR, mouse, plasma, po, 20 mg/kg, p.o. at 20 mg/kg
# Experimental: Pharmacokinetics study was performed by Medicilon Preclinical Research (Shanghai) LLC. Male ICR mice, which were purchased from Sino‐British SIPPR Lab Animal Ltd., Shanghai (25–30 g, 14 weeks of age), were fasted overnight before administration and resumed food 6 h after initial plasma sampling. […]
endpointLabel: Cmax (ng/mL)
The reply should contain only the number, in ng/mL.

Query: Quick check: Cmax of CCCCCOCCCCCNNC(=O)c1ccc(CNC(=O)c2ccccc2)cc1 ?
Response: 2610

====

# test: Pharmacokinetic study in ICR mice (i.v. and p.o.)
# Format: in vivo
# details: male, mouse, plasma, oral, p.o. at 20 mg/kg vs i.v. at 5 mg/kg, read-out: oral bioavailability (F%)
# Procedure: Pharmacokinetics study was performed by Medicilon Preclinical Research (Shanghai) LLC. Male ICR mice, which were purchased from Sino‐British SIPPR Lab Animal Ltd., Shanghai (25–30 g, 14 weeks of age), were fasted overnight before administration and resumed food 6 h after initial plasma sampling. […]
endpointLabel: bioavailability (%)
The reply should contain only the number, in %.

Query: Quick check: bioavailability of CCCCCOCCCCCNNC(=O)c1ccc(CNC(=O)c2ccccc2)cc1 ?
Response: 34.5

====

# test: Pharmacokinetic study in ICR mice (i.v. and p.o.)
# Format: in vivo
# details: male, mouse, plasma, iv, i.v. at 5 mg/kg
endpointLabel: clearance (mL/min/kg)
The reply should contain only the number, in mL/min/kg.

Query: Quick check: clearance of CCCCCOCCCCCNNC(=O)c1ccc(CNC(=O)c2ccccc2)cc1 [B6] ?
Response: 39.5

====

# studyTarget: HDAC7 (Homo sapiens)
# Sequence (Q8WUI4 1-952): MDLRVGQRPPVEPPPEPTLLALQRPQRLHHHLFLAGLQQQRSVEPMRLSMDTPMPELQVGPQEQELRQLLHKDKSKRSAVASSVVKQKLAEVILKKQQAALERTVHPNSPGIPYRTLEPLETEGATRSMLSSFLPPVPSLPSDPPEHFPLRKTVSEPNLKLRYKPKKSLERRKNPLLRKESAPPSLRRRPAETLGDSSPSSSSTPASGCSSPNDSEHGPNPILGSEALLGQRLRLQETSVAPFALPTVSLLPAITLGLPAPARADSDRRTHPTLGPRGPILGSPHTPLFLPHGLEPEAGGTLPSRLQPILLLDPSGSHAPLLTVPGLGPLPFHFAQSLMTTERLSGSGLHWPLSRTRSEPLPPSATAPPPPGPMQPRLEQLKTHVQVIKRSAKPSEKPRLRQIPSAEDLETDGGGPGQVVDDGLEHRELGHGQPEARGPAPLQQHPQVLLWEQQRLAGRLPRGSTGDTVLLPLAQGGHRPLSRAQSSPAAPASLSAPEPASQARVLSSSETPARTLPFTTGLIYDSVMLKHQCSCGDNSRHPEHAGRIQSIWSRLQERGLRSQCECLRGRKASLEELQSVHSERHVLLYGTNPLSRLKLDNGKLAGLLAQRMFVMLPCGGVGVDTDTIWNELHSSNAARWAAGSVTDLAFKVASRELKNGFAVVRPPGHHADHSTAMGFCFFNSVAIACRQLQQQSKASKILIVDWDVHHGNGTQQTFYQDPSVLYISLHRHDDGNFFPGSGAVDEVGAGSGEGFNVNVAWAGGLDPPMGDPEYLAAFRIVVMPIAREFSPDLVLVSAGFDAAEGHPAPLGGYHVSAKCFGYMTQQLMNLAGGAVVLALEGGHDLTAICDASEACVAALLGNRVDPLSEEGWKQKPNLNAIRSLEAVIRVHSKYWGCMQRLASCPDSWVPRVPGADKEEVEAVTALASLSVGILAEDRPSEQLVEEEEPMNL
pIC50: −log10 of the molar value.
endpointLabel: pIC50

Query: Hi! What's the reported pIC50 for CCCCCOCCCCCNNC(=O)c1ccc(CNC(=O)c2ccccc2)cc1 on HDAC7 (Homo sapiens)?
Response: < 5.00

====

# studyTarget: HDAC11 (Homo sapiens, UniProt Q96DB2)
# Construct: The HDAC11 enzyme was a full‐length human recombinant HDAC enzyme sourced from BPS Bioscience; purchased BPS Bioscience
# Sequence (Q96DB2 1-347): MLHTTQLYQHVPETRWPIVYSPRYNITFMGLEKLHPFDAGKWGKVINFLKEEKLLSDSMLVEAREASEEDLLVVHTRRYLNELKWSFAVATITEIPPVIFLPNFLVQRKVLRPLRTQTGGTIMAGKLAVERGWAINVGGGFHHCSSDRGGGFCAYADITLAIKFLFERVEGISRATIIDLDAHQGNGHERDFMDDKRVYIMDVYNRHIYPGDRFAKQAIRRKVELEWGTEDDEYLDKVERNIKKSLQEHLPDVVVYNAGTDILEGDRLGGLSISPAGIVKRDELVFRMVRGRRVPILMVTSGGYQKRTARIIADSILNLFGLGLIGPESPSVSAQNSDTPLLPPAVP
# test: HDAC11 inhibition fluorescence assay (ETDKmyr substrate)
# Type: biochemical
# details: mean ± SEM
pIC50: −log10 of the molar value.
Classify by measured pIC50: 1 if it is equal to or exceeds 6, 0 if it is smaller.

Query: Textbook exercise: given the entry CCCCCCNNC(=O)c1ccc(CNC(=O)c2ccccc2)cc1 , state whether its pIC50 is greater than or equal to 6.
Response: 0

Query: Textbook exercise: given the entry CCCOCCCCCCCNNC(=O)c1ccc(CNC(=O)c2ccccc2)cc1 , state whether its pIC50 is greater than or equal to 6.
Response: 1

Query: Textbook exercise: given the entry COCCOCCCCCCNNC(=O)c1ccc(CNC(=O)c2ccccc2)cc1 , state whether its pIC50 is greater than or equal to 6.
Response: 0

Query: Textbook exercise: given the entry CCCCCCCCCCCCCCCCNNC(=O)c1cccs1 [SIS17, reference compound] , state whether its pIC50 is greater than or equal to 6.
Response: 1

Query: Textbook exercise: given the entry CCCCOCCCCCCNNC(=O)c1ccc(CNC(=O)c2ccccc2)cc1 , state whether its pIC50 is greater than or equal to 6.
Response: 1

====

# test: Pharmacokinetic study in ICR mice (i.v. and p.o.)
# Assay type: in vivo
# details: male, mouse, plasma, iv, i.v. at 5 mg/kg, read-out: MRT0-inf
endpointLabel: MRT inf
Just so you know, I need the unit written after the number.

Query: Quick check: MRT inf of CCCCCOCCCCCNNC(=O)c1ccc(CNC(=O)c2ccccc2)cc1 ?
Response: 13.8 min

====

The reader will find IC50 measurements below, all made with UniProt:O15379.
Sequence (O15379 whole entry): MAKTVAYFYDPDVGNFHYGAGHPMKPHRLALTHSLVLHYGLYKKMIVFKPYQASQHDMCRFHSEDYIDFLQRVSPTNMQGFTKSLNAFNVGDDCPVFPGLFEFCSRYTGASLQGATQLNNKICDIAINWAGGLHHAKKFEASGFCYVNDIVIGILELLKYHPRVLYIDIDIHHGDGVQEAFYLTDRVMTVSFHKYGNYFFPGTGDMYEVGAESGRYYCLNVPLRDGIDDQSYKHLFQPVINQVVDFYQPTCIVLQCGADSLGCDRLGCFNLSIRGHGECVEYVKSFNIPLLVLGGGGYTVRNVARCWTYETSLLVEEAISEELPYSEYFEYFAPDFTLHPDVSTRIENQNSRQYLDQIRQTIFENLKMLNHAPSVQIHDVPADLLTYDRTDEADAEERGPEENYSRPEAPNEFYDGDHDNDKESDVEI
Sequence (Q9Y618 395-489 partner limits assumed): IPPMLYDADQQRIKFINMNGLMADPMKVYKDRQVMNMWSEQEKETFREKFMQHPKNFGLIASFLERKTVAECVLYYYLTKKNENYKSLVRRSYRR
The reply should contain only the number, in nM.

Some molecules with known IC50 results, for comparison:
- chemicalStructure: "CCCCCCCCCNNC(=O)c1ccc(CNC(=O)c2ccccc2)cc1"
  measurementUnit: "nM"
  IC50: 2050
- chemicalStructure: "CCCCCCNNC(=O)c1ccc(CNC(=O)c2ccccc2)cc1"
  measurementUnit: "nM"
  IC50: 6.79
- chemicalStructure: "CCCCCCCCNNC(=O)c1ccc(CNC(=O)c2ccccc2)cc1"
  measurementUnit: "nM"
  IC50: 501

Query: Quick check: IC50 of CCCCCCCNNC(=O)c1ccc(CNC(=O)c2ccccc2)cc1 ?
Response: 6360

====

The reader will find pIC50 measurements below, all made with UniProtKB Q13547.
Sequence (Q13547 whole entry): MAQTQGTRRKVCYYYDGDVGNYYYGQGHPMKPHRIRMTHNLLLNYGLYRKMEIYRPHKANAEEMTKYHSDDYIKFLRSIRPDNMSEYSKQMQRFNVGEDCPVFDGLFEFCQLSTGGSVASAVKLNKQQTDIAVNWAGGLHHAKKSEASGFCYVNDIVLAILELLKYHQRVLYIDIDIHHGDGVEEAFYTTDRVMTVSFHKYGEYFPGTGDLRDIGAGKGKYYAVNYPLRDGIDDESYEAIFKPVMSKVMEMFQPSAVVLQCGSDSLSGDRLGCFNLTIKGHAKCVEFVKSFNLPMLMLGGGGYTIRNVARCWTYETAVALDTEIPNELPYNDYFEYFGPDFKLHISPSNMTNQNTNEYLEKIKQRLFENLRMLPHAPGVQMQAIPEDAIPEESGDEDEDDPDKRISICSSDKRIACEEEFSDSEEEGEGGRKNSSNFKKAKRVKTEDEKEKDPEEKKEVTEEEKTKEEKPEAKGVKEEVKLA
pIC50: −log10 of the molar value.

Some molecules with known pIC50 results, for comparison:
- molecule: "CCCCCOCCCCCNNC(=O)c1ccc(CNC(=O)c2ccccc2)cc1 [B6]"
  studyTarget: "UniProtKB Q13547"
  endpointLabel: "pIC50"
  resultValue: "< 5.00"
- molecule: "CCCCNNC(=O)c1ccc(CNC(=O)c2ccccc2)cc1 [A1]"
  studyTarget: "UniProtKB Q13547"
  endpointLabel: "pIC50"
  resultValue: 7.69
- molecule: "CCCCCCCCCCNNC(=O)c1ccc(CNC(=O)c2ccccc2)cc1 [A7]"
  studyTarget: "UniProtKB Q13547"
  endpointLabel: "pIC50"
  resultValue: "< 5.00"

Query: Hi! What's the reported pIC50 for CCCCCCCCCCCCNNC(=O)c1ccc(CNC(=O)c2ccccc2)cc1 [A9] on UniProtKB Q13547?
Response: < 5.00

Query: Hi! What's the reported pIC50 for CCCCCCCCCCCCCCCCNNC(=O)c1cccs1 [SIS17, reference compound] on UniProtKB Q13547?
Response: < 5.00

Query: Hi! What's the reported pIC50 for CCCCCNNC(=O)c1ccc(CNC(=O)c2ccccc2)cc1 [A2] on UniProtKB Q13547?
Response: 7.34
